Origin of measurements: patent US20230011916A1

Entries annotated with measured EC50
- assaySystem: T1, full-length human OX40 expressed on HuT78 cells (HuT78/OX40) (human, UniProt P43489 29-277)
- T1 sequence: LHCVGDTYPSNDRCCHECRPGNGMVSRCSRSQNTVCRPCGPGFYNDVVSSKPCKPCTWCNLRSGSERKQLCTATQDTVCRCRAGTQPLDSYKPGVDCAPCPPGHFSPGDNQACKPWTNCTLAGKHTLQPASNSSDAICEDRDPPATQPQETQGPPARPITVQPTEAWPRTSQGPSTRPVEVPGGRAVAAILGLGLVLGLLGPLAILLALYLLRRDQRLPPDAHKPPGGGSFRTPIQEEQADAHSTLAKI
- experiment: flow cytometry on live HuT78/OX40 cells; Mean
Number in µg/mL, nothing else.

binder	EC50 / µg/mL
445-3 IgG4 (antibody, V domains shown) VH: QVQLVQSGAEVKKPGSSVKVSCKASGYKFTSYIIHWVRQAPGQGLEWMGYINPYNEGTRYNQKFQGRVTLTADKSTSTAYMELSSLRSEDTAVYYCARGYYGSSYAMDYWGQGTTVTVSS VL: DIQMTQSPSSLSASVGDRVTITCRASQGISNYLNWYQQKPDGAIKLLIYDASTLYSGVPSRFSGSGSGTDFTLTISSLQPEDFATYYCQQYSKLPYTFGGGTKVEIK	0.263

As a next step, examine the binder that follows.
*Q* Dear colleague, I am looking for the recorded EC50 of the following binder: ch445 (antibody, V domains shown, also called Mu445 variable domains fused to human IgG1wt/kappa constant regions) VH: EVQLQQSGPELVKPGASVKMSCKASGYKFTSYIIHWVKQKPGQGLEWIGYINPYNDGTRYNEKFKGKATLTSDKSSSTAYMEYSSLTSEDSAVYYCARGYYGSSYAMDYWGQGTSVTVSS VL: DIQMTQTTSSLSASLGDRVTISCSASQGISNYLNWYQQKPDGTIKLLIYDTSTLYSGVPSRFSGSGSGTDYFLTISNLEPEDIATYYCQQYSKLPYTFGGGTKLEKK
*A* 0.299
